B1: library; a variant is named by its letters at N, in order (parent)
chain: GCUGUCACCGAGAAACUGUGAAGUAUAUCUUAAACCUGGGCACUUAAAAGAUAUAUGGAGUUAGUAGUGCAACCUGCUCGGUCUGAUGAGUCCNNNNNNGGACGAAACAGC

variants of: B1; assay: normalized RNA/DNA level with ligand (relative to sTRSVctl = 100) (log10 (% of sTRSVctl)); HEK293T; ligand: cyclic di-GMP (c-di-GMP-II aptamer); ligand concentration (+) RNA-Seq: 1 mM; higher = less ribozyme self-cleavage, higher mRNA level; conditions: reporter: mCherry (pCS4076), ligand present: yes
Below, each entry is listed with its recorded normalized RNA/DNA level with ligand (log10).
The response must contain the number and no unit.

INSERT INTO assay_data (mutation_annotation, assay_result) VALUES
  ('GCGUCG', 1.77),
  ('UGCCCA', 1.96),
  ('GACCGC', 1.8),
  ('ACCCUA', 1.78),
  ('GCUUCC', 1.85);

Prompt line: Please look at this variant and report its normalized RNA/DNA level with ligand (log10): CCCUGA
Response line: 1.82

Prompt line: Note down normalized RNA/DNA level with ligand (log10) recorded for GUUUAG
Response line: 1.78

Prompt line: Name the recorded normalized RNA/DNA level with ligand (log10) of the variant listed here: CGGAAG
Response line: 1.86

Prompt line: Find the measured normalized RNA/DNA level with ligand (log10) of UUAGGU and report it.
Response line: 1.86

Prompt line: Return the recorded normalized RNA/DNA level with ligand (log10) value; entry: AGUAUA
Response line: 1.69

Prompt line: Specify normalized RNA/DNA level with ligand (log10) for UUGAAG and stop.
Response line: 1.81

Hey, just so you know, these numbers are from the supplement of paper PMC6757056.
